The reported numbers originate from patent US20160038454A1.

Experiment: PG796(MRx102) solubility in emulsion formulations
Format: physicochemical
Details: emulsion formulation, aqueous with cosolvent or surfactant or cyclodextrin; preliminary emulsion: 29.4% GTO, 1.65% Span 80, 0.31% Tween 80, 68.6% water
endpoint_name: solubility (µg/mL)
Your answer is read as µg/mL, so omit the unit and give the number.

[Q] Name the recorded solubility for CC(C)[C@]12O[C@H]1[C@@H]1O[C@]13[C@]1(O[C@H]1C[C@H]1c4c(C(=O)c5ccccc5)oc(OC(=O)c5ccccc5)c4CC[C@@]13C)[C@@H]2O .
[A] 681

* * *

Assay: Rodent toxicology study, intravenous, seven days
Type: in vivo, rodents
Conditions: in vivo, iv; intravenously for seven days in rodents; read-out: no effect dose (NOAEL)
Description: Triptolide prodrugs are generally believed to be safer than triptolide. […] Triptolide prodrugs as an emulsion formulation are believed to have a toxicokinetic profile characterized by a flat AUC with a minimized Cmax. [In conjunction, it was postulated that a sustained inhibition of RNA polymerase is needed for optimum efficacy which in turn requires a pharmcokinetic profile of constant exposure to drug]. […]
endpoint_name: NOAEL at 7 days

[Q] Name the recorded NOAEL at 7 days for CC(C)[C@]12O[C@H]1[C@@H]1O[C@]13[C@]1(O[C@H]1C[C@H]1c4c(C(=O)c5ccccc5)oc(OC(=O)c5ccccc5)c4CC[C@@]13C)[C@@H]2O .
[A] > 1.5 mg/kg/day

* * *

Test: PG796(MRx102) solubility in emulsion formulations
Type: physicochemical
Settings: emulsion formulation, aqueous with cosolvent or surfactant or cyclodextrin; emulsion target pH 8.0 (Tris); 1 wk
endpoint_name: solubility at 1 wk
Answer with the number, then the unit.

[Q] Name the recorded solubility at 1 wk for CC(C)[C@]12O[C@H]1[C@@H]1O[C@]13[C@]1(O[C@H]1C[C@H]1c4c(C(=O)c5ccccc5)oc(OC(=O)c5ccccc5)c4CC[C@@]13C)[C@@H]2O [PG796] .
[A] 1040 µg/mL

* * *

Experiment: PG796(MRx102) solubility in emulsion formulations
Assay type: physicochemical
Settings: emulsion formulation, aqueous with cosolvent or surfactant or cyclodextrin; emulsion target pH 5.0 (acetate); 0 hr
endpoint_name: solubility at 0 hr (µg/mL)
Your answer is read as µg/mL, so omit the unit and give the number.

[Q] Name the recorded solubility at 0 hr for CC(C)[C@]12O[C@H]1[C@@H]1O[C@]13[C@]1(O[C@H]1C[C@H]1c4c(C(=O)c5ccccc5)oc(OC(=O)c5ccccc5)c4CC[C@@]13C)[C@@H]2O [PG796] .
[A] 1010

* * *

Experiment: PG796(MRx102) solubility in emulsion formulations
Type: physicochemical
Conditions: emulsion formulation, aqueous with cosolvent or surfactant or cyclodextrin; emulsion target pH 4.0 (acetate); 0 hr
endpoint_name: solubility at 0 hr (µg/mL)
Your answer is read as µg/mL, so omit the unit and give the number.

[Q] Name the recorded solubility at 0 hr for CC(C)[C@]12O[C@H]1[C@@H]1O[C@]13[C@]1(O[C@H]1C[C@H]1c4c(C(=O)c5ccccc5)oc(OC(=O)c5ccccc5)c4CC[C@@]13C)[C@@H]2O .
[A] 870

* * *

Experiment: PG796(MRx102) solubility in emulsion formulations
Type: physicochemical
Conditions: emulsion formulation, aqueous with cosolvent or surfactant or cyclodextrin; emulsion target pH 5.0 (acetate); 2 wk
endpoint_name: solubility at 2 wk (µg/mL)
Your answer is read as µg/mL, so omit the unit and give the number.

[Q] Name the recorded solubility at 2 wk for CC(C)[C@]12O[C@H]1[C@@H]1O[C@]13[C@]1(O[C@H]1C[C@H]1c4c(C(=O)c5ccccc5)oc(OC(=O)c5ccccc5)c4CC[C@@]13C)[C@@H]2O .
[A] 910
